This collection of values is drawn from patent US10710980B2.

Study target: wild-type ALK2 (aa172-499) (Homo sapiens (Human), UniProt Q04771)
Sequence (Q04771 172-499): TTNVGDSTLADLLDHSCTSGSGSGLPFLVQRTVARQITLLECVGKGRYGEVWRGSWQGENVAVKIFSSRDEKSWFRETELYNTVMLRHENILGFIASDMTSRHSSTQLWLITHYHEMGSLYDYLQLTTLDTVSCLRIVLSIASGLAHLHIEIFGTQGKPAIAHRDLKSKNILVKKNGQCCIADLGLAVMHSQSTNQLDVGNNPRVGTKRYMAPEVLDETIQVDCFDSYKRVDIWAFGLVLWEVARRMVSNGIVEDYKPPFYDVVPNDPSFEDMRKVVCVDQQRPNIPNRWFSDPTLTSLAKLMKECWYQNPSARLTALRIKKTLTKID
Procedure summary: Caliper biochemical peptide phosphorylation assay, ALK2
Assay conditions: 15 μm ATP, 60 min at 30° C.; read-out: ALK2 EPK (IC50)
Measured endpoint: pIC50
To interpret pIC50, take it as minus log10 of a concentration measured in moles per litre.

(Q) Would you kindly share the measured pIC50 for Nc1ncc(-c2ccc([C@]34C[C@H]3CN(CCCN3CCOCC3)C4)cc2)cc1C(=O)N[C@H]1CC[C@H](O)CC1 ?
(A) 8.00

(Q) Would you kindly share the measured pIC50 for Nc1ncc(-c2ccc(OCCCN3CCCCC3)cc2)cc1C(=O)NC1CCCCC1 ?
(A) 7.60

(Q) Would you kindly share the measured pIC50 for C[C@@H]1CCCN1Cc1ccc(-c2cnc(N)c(C(=O)N[C@H]3CC[C@H](O)CC3)c2)cc1 ?
(A) 7.70

(Q) Would you kindly share the measured pIC50 for Nc1ncc(-c2ccc(CN3CC4(CCC4)C3)cc2)cc1C(=O)N[C@H]1CC[C@H](O)CC1 ?
(A) 7.74

###

Study target: wild-type ALK2 (aa172-499) (Homo sapiens (Human), UniProt Q04771)
Procedure summary: ADPGlo biochemical autophosphorylation assay, ALK2
Assay conditions: 15 μm ATP, 60 min at 32° C.
What IC50 was measured for each of the following?
Quick reminder: number only, in nM, skip the unit.

(Q) Would you kindly share the measured IC50 for C[C@H](c1ccc(-c2cnc(N)c(C(=O)NC34CC5CC(CC(O)(C5)C3)C4)c2)cc1)N1CC2(COC2)C1 ?
(A) 34

(Q) Would you kindly share the measured IC50 for N#CCCN1C[C@@H]2C[C@]2(c2ccc(-c3cnc(N)c(C(=O)N[C@H]4CC[C@H](O)CC4)c3)cc2)C1 ?
(A) 16

(Q) Would you kindly share the measured IC50 for CC(C)N1C[C@@H]2C[C@]2(c2ccc(-c3cnc(N)c(C(=O)N[C@H]4CC[C@](C)(O)CC4)c3)cc2)C1 ?
(A) 22

(Q) Would you kindly share the measured IC50 for Nc1ncc(-c2ccc([C@]34C[C@H]3CN(CCF)C4)cc2)cc1C(=O)N[C@H]1CC[C@H](O)CC1 ?
(A) 9

(Q) Would you kindly share the measured IC50 for Nc1ncc(-c2ccc(N3CCNCC3)cc2F)cc1C(=O)N[C@H]1CC[C@H](O)CC1 ?
(A) 22

(Q) Would you kindly share the measured IC50 for COCCN1C[C@@H]2C[C@]2(c2ccc(-c3cnc(N)c(C(=O)N[C@H]4CC[C@H](O)CC4)c3)cc2)C1 ?
(A) 7

(Q) Would you kindly share the measured IC50 for C[C@H](c1ccc(-c2cnc(N)c(C(=O)N[C@H]3CC[C@](C)(O)CC3)c2)cc1)N1CC2(COC2)C1 ?
(A) 24

###

What pIC50 was measured for each of the following?
Study target: wild-type ALK2 (aa172-499) (Homo sapiens (Human))
Procedure summary: ADPGlo biochemical autophosphorylation assay, ALK2
Assay conditions: 15 μm ATP, 60 min at 32° C.
To interpret pIC50, take it as minus log10 of a concentration measured in moles per litre.

(Q) Would you kindly share the measured pIC50 for Nc1ncc(-c2ccc([C@]34C[C@H]3CN(C3CCC(F)(F)CC3)C4)cc2)cc1C(=O)NC12CCC(O)(CC1)CC2 ?
(A) 7.77

(Q) Would you kindly share the measured pIC50 for Nc1ncc(-c2ccc([C@@]34C[C@@H]3CN(C3CCN(CC(F)(F)F)CC3)C4)cc2)cc1C(=O)N[C@H]1CC[C@H](O)CC1 ?
(A) 7.89

(Q) Would you kindly share the measured pIC50 for COCCN1C[C@@H]2C[C@]2(c2ccc(-c3cnc(N)c(C(=O)NC45CCC(O)(CC4)CC5)c3)cc2)C1 ?
(A) 7.92

(Q) Would you kindly share the measured pIC50 for CC(C)N1C[C@@H]2C[C@]2(c2ccc(-c3cnc(N)c(C(=O)N[C@H]4CC[C@H](O)CC4)c3)cc2)C1 ?
(A) 7.96

(Q) Would you kindly share the measured pIC50 for CC(F)(F)CN1C[C@@H]2C[C@]2(c2ccc(-c3cnc(N)c(C(=O)N[C@H]4CC[C@H](O)CC4)c3)cc2)C1 ?
(A) 7.47

(Q) Would you kindly share the measured pIC50 for Nc1ncc(-c2ccc([C@@]34C[C@@H]3CN(CCC(F)(F)F)C4)cc2)cc1C(=O)N[C@H]1CC[C@H](O)CC1 ?
(A) 7.68

(Q) Would you kindly share the measured pIC50 for CC(C)N1C[C@@H]2C[C@]2(c2ccc(-c3cnc(N)c(C(=O)NC45CC(CO)(C4)C5)c3)cc2)C1 ?
(A) 7.92

(Q) Would you kindly share the measured pIC50 for Nc1ncc(-c2ccc([C@@]34C[C@@H]3CN(CC(F)(F)F)C4)cc2)cc1C(=O)N[C@H]1CC[C@H](O)CC1 ?
(A) 7.55

(Q) Would you kindly share the measured pIC50 for C[C@@H]1CCCN1Cc1ccc(-c2cnc(N)c(C(=O)N[C@H]3CC[C@](C)(O)CC3)c2)cc1F ?
(A) 7.62

(Q) Would you kindly share the measured pIC50 for Nc1ncc(-c2ccc([C@@]34C[C@@H]3CN(CCN3CCOCC3)C4)cc2)cc1C(=O)N[C@H]1CC[C@H](O)CC1 ?
(A) 7.96

(Q) Would you kindly share the measured pIC50 for Nc1ncc(-c2ccc([C@]34C[C@H]3CN(C3COC3)C4)cc2)cc1C(=O)NC12CCC(O)(CC1)CC2 ?
(A) 7.04

(Q) Would you kindly share the measured pIC50 for Nc1ncc(-c2ccc([C@]34C[C@H]3CN(C3CCOCC3)C4)cc2)cc1C(=O)N[C@H]1CC[C@H](O)CC1 ?
(A) 8.00

(Q) Would you kindly share the measured pIC50 for Nc1ncc(-c2ccc([C@]34C[C@H]3CN(CC(F)(F)F)C4)cc2)cc1C(=O)N[C@H]1CC[C@H](O)CC1 ?
(A) 7.66

###

Procedure summary: Solubility (at 25° C., 24 h equilibration)
Assay type: physicochemical
Assay conditions: borate buffer, 25 °C, pH 9, aqueous buffer, thermodynamic from solid, pH 9.0 borate buffer/8.6, 24 h, target concentration 2 mg/mL
Where a name gives a salt, the structure may show the parent alone.
Measured endpoint: solubility at 24 h (µg/mL)
Quick reminder: number only, in µg/mL, skip the unit.

(Q) Would you kindly share the measured solubility at 24 h for Nc1ncc(-c2ccc([C@@]34C[C@@H]3CN(C3CCOCC3)C4)cc2)cc1C(=O)NC12CCC(O)(CC1)CC2 [Fumarate salt Modification HA] ?
(A) 30

###

What pIC50 was measured for each of the following?
Study target: wild-type ALK2 (aa172-499) (Homo sapiens (Human), UniProt Q04771)
Procedure summary: ADPGlo biochemical autophosphorylation assay, ALK2
Assay conditions: 15 μm ATP, 60 min at 32° C.
To interpret pIC50, take it as minus log10 of a concentration measured in moles per litre.

(Q) Query the reported pIC50 for wild-type ALK2 (aa172-499) (Homo sapiens (Human), UniProt Q04771); item: Nc1ncc(-c2ccc([C@@]34C[C@@H]3CN(C3CCOCC3)C4)cc2)cc1C(=O)NC12CCC(O)(CC1)CC2
(A) 7.74

(Q) Query the reported pIC50 for wild-type ALK2 (aa172-499) (Homo sapiens (Human), UniProt Q04771); item: Nc1ncc(-c2ccc([C@]34C[C@H]3CN(C3CCC(F)(F)CC3)C4)cc2)cc1C(=O)N[C@H]1CC[C@H](O)CC1
(A) 8.00

(Q) Query the reported pIC50 for wild-type ALK2 (aa172-499) (Homo sapiens (Human), UniProt Q04771); item: Nc1ncc(-c2ccc([C@@]34C[C@@H]3CN(CCOCC(F)(F)F)C4)cc2)cc1C(=O)N[C@H]1CC[C@H](O)CC1
(A) 7.72

(Q) Query the reported pIC50 for wild-type ALK2 (aa172-499) (Homo sapiens (Human), UniProt Q04771); item: COCCN1C[C@H]2C[C@@]2(c2ccc(-c3cnc(N)c(C(=O)N[C@H]4CC[C@H](O)CC4)c3)cc2)C1
(A) 7.96

(Q) Query the reported pIC50 for wild-type ALK2 (aa172-499) (Homo sapiens (Human), UniProt Q04771); item: CC(C)(O)C12CC(NC(=O)c3cc(-c4ccc([C@@]56C[C@@H]5CN(C5CCOCC5)C6)cc4)cnc3N)(C1)C2
(A) 7.00

(Q) Query the reported pIC50 for wild-type ALK2 (aa172-499) (Homo sapiens (Human), UniProt Q04771); item: Nc1ncc(-c2ccc([C@@]34C[C@@H]3CN(C(CF)CF)C4)cc2)cc1C(=O)N[C@H]1CC[C@H](O)CC1
(A) 7.74

###

What pIC50 was measured for each of the following?
Study target: wild-type ALK2 (aa172-499) (Homo sapiens (Human))
Procedure summary: ADPGlo biochemical autophosphorylation assay, ALK2
Assay conditions: 15 μm ATP, 60 min at 32° C.
To interpret pIC50, take it as minus log10 of a concentration measured in moles per litre.

(Q) Query the reported pIC50 for wild-type ALK2 (aa172-499) (Homo sapiens (Human)); item: CC#CCN1C[C@@H]2C[C@]2(c2ccc(-c3cnc(N)c(C(=O)N[C@H]4CC[C@H](O)CC4)c3)cc2)C1 [Example 37]
(A) 8.10

(Q) Query the reported pIC50 for wild-type ALK2 (aa172-499) (Homo sapiens (Human)); item: Nc1ncc(-c2ccc([C@@]34C[C@@H]3CN(C3CCC(F)(F)CC3)C4)cc2)cc1C(=O)NC12CCC(O)(CC1)CC2 [Example 80]
(A) 7.24

(Q) Query the reported pIC50 for wild-type ALK2 (aa172-499) (Homo sapiens (Human)); item: Nc1ncc(-c2ccc(N3CCCCC3)cc2)cc1C(=O)NC1CCCCC1 [Example 61]
(A) 7.37

(Q) Query the reported pIC50 for wild-type ALK2 (aa172-499) (Homo sapiens (Human)); item: C[C@@H]1CCCN1Cc1ccc(-c2cnc(N)c(C(=O)N[C@H]3CC[C@H](O)CC3)c2)cc1 [Example 31]
(A) 7.89

(Q) Query the reported pIC50 for wild-type ALK2 (aa172-499) (Homo sapiens (Human)); item: C[C@]1(O)CC[C@H](NC(=O)c2cc(-c3ccc([C@]45C[C@H]4CN(C4CCC(F)(F)CC4)C5)cc3)cnc2N)CC1 [Example 58]
(A) 7.60

(Q) Query the reported pIC50 for wild-type ALK2 (aa172-499) (Homo sapiens (Human)); item: Nc1ncc(-c2cccc(C(=O)N3CCN(CCO)CC3)c2)cc1C(=O)NC1CCCCC1 [Example 88]
(A) 6.00

(Q) Query the reported pIC50 for wild-type ALK2 (aa172-499) (Homo sapiens (Human)); item: CC(C)N1CCN(c2ccc(-c3cnc(N)c(C(=O)N[C@H]4CC[C@H](O)CC4)c3)c(F)c2)CC1 [Example 8]
(A) 7.89

(Q) Query the reported pIC50 for wild-type ALK2 (aa172-499) (Homo sapiens (Human)); item: C[C@]1(O)CC[C@H](NC(=O)c2cc(-c3ccc([C@@]45C[C@@H]4CN(C4CCC(F)(F)CC4)C5)cc3)cnc2N)CC1 [Example 82]
(A) 7.09

(Q) Query the reported pIC50 for wild-type ALK2 (aa172-499) (Homo sapiens (Human)); item: C[C@@H]1CCCN1Cc1ccc(-c2cnc(N)c(C(=O)N[C@H]3CC[C@](C)(O)CC3)c2)c(F)c1F [Example 74]
(A) 7.19

(Q) Query the reported pIC50 for wild-type ALK2 (aa172-499) (Homo sapiens (Human)); item: Nc1ncc(-c2ccc([C@]34C[C@H]3CN(CCN3CCOCC3)C4)cc2)cc1C(=O)NC12CCC(O)(CC1)CC2 [Example 40]
(A) 7.49

(Q) Query the reported pIC50 for wild-type ALK2 (aa172-499) (Homo sapiens (Human)); item: C[C@@H]1CCCN1Cc1ccc(-c2cnc(N)c(C(=O)N[C@H]3CC[C@](C)(O)CC3)c2)cc1Cl [Example 85]
(A) 6.72

(Q) Query the reported pIC50 for wild-type ALK2 (aa172-499) (Homo sapiens (Human)); item: C[C@H](c1ccc(-c2cnc(N)c(C(=O)N[C@]3(C)CC[C@@H](O)CC3)c2)cc1)N1CC2(COC2)C1 [Example 86]
(A) 6.96

(Q) Query the reported pIC50 for wild-type ALK2 (aa172-499) (Homo sapiens (Human)); item: CC(C)N1C[C@H]2C[C@@]2(c2ccc(-c3cnc(N)c(C(=O)NC45CC(CO)(C4)C5)c3)cc2)C1 [Example 36]
(A) 7.80

(Q) Query the reported pIC50 for wild-type ALK2 (aa172-499) (Homo sapiens (Human)); item: Nc1ncc(-c2ccc([C@@]34C[C@@H]3CN(C3CCS(=O)(=O)CC3)C4)cc2)cc1C(=O)N[C@H]1CC[C@H](O)CC1 [Example 44]
(A) 7.74

(Q) Query the reported pIC50 for wild-type ALK2 (aa172-499) (Homo sapiens (Human)); item: C[C@H](c1ccc(-c2cnc(N)c(C(=O)N[C@H]3CC[C@H](O)CC3)c2)c(Cl)c1)N1CC2(COC2)C1 [Example 55]
(A) 7.66

(Q) Query the reported pIC50 for wild-type ALK2 (aa172-499) (Homo sapiens (Human)); item: C[C@@H]1CCCN1Cc1ccc(-c2cnc(N)c(C(=O)N[C@H]3CC[C@](C)(O)CC3)c2)c(F)c1 [Example 56]
(A) 7.55

(Q) Query the reported pIC50 for wild-type ALK2 (aa172-499) (Homo sapiens (Human)); item: CN1CCN(C(=O)c2ccc(-c3cnc(N)c(C(=O)N[C@H]4CC[C@@H](O)CC4)c3)cc2)CC1 [Example 79]
(A) 7.07

(Q) Query the reported pIC50 for wild-type ALK2 (aa172-499) (Homo sapiens (Human)); item: Nc1ncc(-c2ccc([C@@]34C[C@@H]3CN(C3CCOCC3)C4)cc2)cc1C(=O)NC12CC(CO)(C1)C2 [Example 30]
(A) 8.15

(Q) Query the reported pIC50 for wild-type ALK2 (aa172-499) (Homo sapiens (Human)); item: CC(F)(F)CN1C[C@H]2C[C@@]2(c2ccc(-c3cnc(N)c(C(=O)N[C@H]4CC[C@H](O)CC4)c3)cc2)C1 [Example 50]
(A) 7.96

(Q) Query the reported pIC50 for wild-type ALK2 (aa172-499) (Homo sapiens (Human)); item: C#CCN1C[C@@H]2C[C@]2(c2ccc(-c3cnc(N)c(C(=O)N[C@H]4CC[C@H](O)CC4)c3)cc2)C1 [Example 53]
(A) 7.89

(Q) Query the reported pIC50 for wild-type ALK2 (aa172-499) (Homo sapiens (Human)); item: Nc1ncc(-c2ccc([C@]34C[C@H]3CN(C3COC3)C4)cc2)cc1C(=O)N[C@H]1CC[C@H](O)CC1 [Example 26]
(A) 7.74

(Q) Query the reported pIC50 for wild-type ALK2 (aa172-499) (Homo sapiens (Human)); item: Nc1ncc(-c2ccc([C@]34C[C@H]3CN(C3CCOCC3)C4)cc2)cc1C(=O)NC12CCC(O)(CC1)CC2 [Example 42]
(A) 7.59
